Kindly find below pIC50 information for Non-receptor tyrosine-protein kinase TYK2 (Homo sapiens, UniProt P29597) taken from the literature.
// pIC50 here means minus log10 of the molar concentration (mol/L)

                                   compound  quantitative_result
0  NC(=O)c1cnc2[nH]ccc2c1NC1CCN(Cc2ccccc2)CC1                 6.96
1  N#Cc1ccc(Nc2nn([C@H]3COCC[C@@H]3C#N)cc2C(N)=O)cc1C1CC1                 7.40
2   Cc1[nH]nc2[nH]c(=O)c(CCO)c(C3CCCCC3)c12                 5.47

I am curious: what pIC50 value has been reported for "COc1cc(N2CCOCC2)ccc1Nc1nc(NC2CCCCC2)c2cc[nH]c2n1" ? 3.88

Another: CC1(C(=O)NC2CC=C(c3cccc4nc(NC(=O)C5CC5)nn34)CC2)CC1(F)F (centres undefined) 6.14

Another: CN1C/C=C/CCOc2cc(ccn2)-c2ccnc(n2)Nc2cccc(c2)C1 (mixture of isomers) 7.19

Another: "Cc1[nH]nc2[nH]c(=O)cc([C@H]3CC[C@H](C(=O)NC4CC4)CC3)c12" 4.85

Another: "CC1(C)[C@H](Nc2c(C(N)=O)cnn3cc(-c4ccccc4C#N)cc23)CC[C@]1(C)N" 7.47

Another: "CC1(C)[C@H](Nc2c(C(N)=O)cnn3cc(-c4ccc(Cl)cc4)cc23)CC[C@]1(C)N" 8.00

Another: Cc1[nH]nc2[nH]c(=O)cc([C@@H]3C[C@H]4CC[C@@H]3C4)c12 (racemic) 6.82

Another: CN1C/C=C/COCC2=CC=C(O2)c2ccnc(n2)Nc2cccc(c2)C1 (mixture of isomers) 5.82

Another: "CC1(C)[C@H](Nc2c(C(N)=O)cnn3cc(-c4ccccc4F)cc23)CC[C@]1(C)N" 7.82
